Reported values of pIC50 for individual entries
assay-target: Kv1.5 channels from humans (Homo sapiens)
Construct: expressed in transfected cells; host or cells: Xenopus laevis oocytes injected with in vitro synthesized RNA
procedure-summary: Kv1.5 currents in Xenopus oocytes, two-microelectrode voltage clamp
Format: cell-based
Remember the convention: pIC50 equals -log10 of concentration in molar.

pIC50 recorded for this molecule, COc1ccc(S(=O)(=O)NCc2ccccc2-c2ccccc2C(=O)N[C@@H](CC(C)C)C(=O)NCC(F)(F)F)cc1 , is 5.85

pIC50 recorded for this molecule, O=C(NCCc1ccccn1)c1ccccc1-c1ccccc1CNC(=S)Nc1ccccc1 , is 5.70

pIC50 recorded for this molecule, CC(C)NC(=O)C(Cc1ccccn1)NC(=O)c1ccccc1-c1ccccc1CNC(=O)OCc1ccccc1 (stereo not drawn) , is 5.92

pIC50 recorded for this molecule, CN(C)c1ccc(CNC(=O)c2ccccc2-c2ccccc2CNC(=O)OCc2ccccc2)cc1 [8 x] , is 5.48

pIC50 recorded for this molecule, O=C(NCCc1ccccn1)c1ccccc1-c1ccccc1CNC(=S)NCc1ccccc1 , is 5.66

pIC50 recorded for this molecule, CC(C)CCNC(=O)c1ccccc1-c1ccccc1CNC(=O)OCc1ccccc1Cl , is 5.47

pIC50 recorded for this molecule, O=C(Cc1ccc(F)cc1)NCc1ccccc1-c1ccccc1C(=O)NCc1ccc(F)cc1F , is 5.96

pIC50 recorded for this molecule, O=C(NCc1ccccc1-c1ccccc1C(=O)NCc1ccc(F)cc1F)Oc1ccccc1 , is 5.42

pIC50 recorded for this molecule, O=C(NCc1ccccc1)c1ccccc1-c1ccccc1CNS(=O)(=O)c1cccc(F)c1 , is 5.62

pIC50 recorded for this molecule, COc1ccc(CC(=O)NCc2ccccc2-c2ccccc2C(=O)NCc2nc3ccccc3[nH]2)cc1 , is 5.24

---

assay-target: Kv1.5 channels from humans (Homo sapiens)
Construct: expressed in transfected cells; host or cells: Xenopus laevis oocytes injected with in vitro synthesized RNA
procedure-summary: Kv1.5 currents in Xenopus oocytes, two-microelectrode voltage clamp
Format: cell-based
Description: Kv1.5 channels from humans were expressed in Xenopus oocytes. For this, oocytes from Xenopus laevis were first isolated and defolliculated. RNA encoding Kv1.5 synthesized in vitro was then injected into these oocytes. After Kv1.5 protein expression for 1-7days, Kv1.5 currents were measured on the oocytes using the two-microelectrode voltage clamp technique. The Kv1.5 channels were in this case as a rule activated using voltage jumps to 0 mV and 40 mV lasting 500 ms. […]
property-label: pIC50
Remember the convention: pIC50 equals -log10 of concentration in molar.

Some solved entries appear below for comparison.
COc1ccc(CC(=O)NCc2ccccc2-c2ccccc2C(=O)NCCc2ccncc2)cc1 [4 j] :: 5.15
CC(C)(C)OC(=O)NCc1ccccc1-c1ccccc1C(=O)NCc1ccccn1 [8 d] :: 5.19
O=C(NCc1ccccc1-c1ccccc1C(=O)NCCc1ccccn1)OCc1ccc(C(F)(F)F)cc1 [1 d] :: 6.00
COc1ccc(CC(=O)NCc2ccccc2-c2ccccc2C(=O)Nc2ccc(OC)cc2)cc1 [4 g] :: 5.47
CC(C)(C)COC(=O)NCc1ccccc1-c1ccccc1C(=O)NCCc1ccccc1 [2 i] :: 5.48

Note to self: pIC50 of O=C(NCc1ccccc1-c1ccccc1C(=O)NCCOc1ccccc1)Nc1ccc(F)cc1F [11 p] with Kv1.5 channels from humans (Homo sapiens) was 5.14

Note to self: pIC50 of CCC(C)CC(=O)NCc1ccccc1-c1ccccc1C(=O)NCc1ccccn1 (stereo not shown) [18 g] with Kv1.5 channels from humans (Homo sapiens) was 5.41

---

Reported values of melting point for individual entries
Numeric only. Scale: °C

O=C(NCCc1ccccc1)c1ccccc1-c1ccccc1CNS(=O)(=O)c1cccc(C(F)(F)F)c1 :: 145
CC(C)CCNC(=O)c1ccccc1-c1ccccc1CNC(=O)Nc1ccccc1 :: 194
CC(C)CCNC(=O)c1ccccc1-c1ccccc1CNC(=O)c1ccccc1 :: 147

melting point recorded for this compound, CC(C)CCNC(=O)c1ccccc1-c1ccccc1CNS(=O)(=O)c1cccc(F)c1 , is 141

melting point recorded for this compound, CC(=O)c1ccc(S(=O)(=O)NCc2ccccc2-c2ccccc2C(=O)NCCc2ccccc2)cc1 , is 145

melting point recorded for this compound, CCc1ccc(S(=O)(=O)NCc2ccccc2-c2ccccc2C(=O)NCCc2ccccc2)cc1 , is 163

melting point recorded for this compound, CC(C)CCNC(=O)c1ccccc1-c1ccccc1CNS(=O)(=O)c1ccc(F)cc1 , is 149

melting point recorded for this compound, O=C(NCCc1ccccc1)c1ccccc1-c1ccccc1CNS(=O)(=O)c1cccc([N+](=O)[O-])c1 , is 145

melting point recorded for this compound, O=C(NCc1ccccc1)c1ccccc1-c1ccccc1CNS(=O)(=O)c1cccc(F)c1 , is 147

---

assay-target: Kv1.5 channels from humans (Homo sapiens, UniProt P22460)
Construct: expressed in transfected cells; host or cells: Xenopus laevis oocytes injected with in vitro synthesized RNA
Sequence (P22460 whole entry): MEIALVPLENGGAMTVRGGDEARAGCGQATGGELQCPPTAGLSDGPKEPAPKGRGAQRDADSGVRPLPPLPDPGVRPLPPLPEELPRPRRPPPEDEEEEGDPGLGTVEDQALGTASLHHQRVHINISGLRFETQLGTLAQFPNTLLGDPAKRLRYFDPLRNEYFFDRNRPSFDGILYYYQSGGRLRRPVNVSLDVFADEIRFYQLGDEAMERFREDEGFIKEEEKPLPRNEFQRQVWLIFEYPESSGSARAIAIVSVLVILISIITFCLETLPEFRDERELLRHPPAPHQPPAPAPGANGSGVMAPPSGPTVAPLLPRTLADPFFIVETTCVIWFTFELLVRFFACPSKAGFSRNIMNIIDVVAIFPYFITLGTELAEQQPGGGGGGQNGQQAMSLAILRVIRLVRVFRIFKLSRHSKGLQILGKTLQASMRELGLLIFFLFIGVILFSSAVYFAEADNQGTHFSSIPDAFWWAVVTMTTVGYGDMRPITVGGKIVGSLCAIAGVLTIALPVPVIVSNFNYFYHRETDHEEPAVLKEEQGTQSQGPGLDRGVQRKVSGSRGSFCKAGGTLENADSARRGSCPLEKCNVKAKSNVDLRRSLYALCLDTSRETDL
procedure-summary: Kv1.5 currents in Xenopus oocytes, two-microelectrode voltage clamp
Assay type: cell-based
Reported values of IC50 for individual entries
Numeric only. Scale: nM

Some solved entries appear below for comparison.
Cc1cccc(CNC(=O)c2ccccc2-c2ccccc2CNC(=O)C[C@@H](C)c2ccc([N+](=O)[O-])cc2)n1 [18 j] :: 700
O=C(CCc1ccc(F)c(F)c1)NCc1ccccc1-c1ccccc1C(=O)NCc1ccc(F)cc1F [14 f] :: 2500
O=C(CCc1ccc(O)cc1)NCc1ccccc1-c1ccccc1C(=O)NCc1ccc(F)cc1F [14 d] :: 2000
O=C(NCc1ccccc1-c1ccccc1C(=O)NC1CCCCC1)OCc1ccccc1 [6 b] :: 1800
O=C(NCc1ccccc1-c1ccccc1C(=O)NCc1ccc(F)cc1F)OCc1ccc(F)cc1 [1 s] :: 1700

IC50 recorded for this compound, COC(=O)c1ccc(OC(=O)NCc2ccccc2-c2ccccc2C(=O)NCCC(C)C)cc1 [2 h] , is 2500

IC50 recorded for this compound, O=C(NCc1ccccc1-c1ccccc1C(=O)NCc1ccc(F)cc1F)Oc1ccc(F)cc1 [2 j] , is 2500
